Target: T1, recombinant rat MASP1 active protease (amino acids 302-704, C-terminal His Tag) (rat, UniProt Q8CHN8 302-704)
T1 sequence: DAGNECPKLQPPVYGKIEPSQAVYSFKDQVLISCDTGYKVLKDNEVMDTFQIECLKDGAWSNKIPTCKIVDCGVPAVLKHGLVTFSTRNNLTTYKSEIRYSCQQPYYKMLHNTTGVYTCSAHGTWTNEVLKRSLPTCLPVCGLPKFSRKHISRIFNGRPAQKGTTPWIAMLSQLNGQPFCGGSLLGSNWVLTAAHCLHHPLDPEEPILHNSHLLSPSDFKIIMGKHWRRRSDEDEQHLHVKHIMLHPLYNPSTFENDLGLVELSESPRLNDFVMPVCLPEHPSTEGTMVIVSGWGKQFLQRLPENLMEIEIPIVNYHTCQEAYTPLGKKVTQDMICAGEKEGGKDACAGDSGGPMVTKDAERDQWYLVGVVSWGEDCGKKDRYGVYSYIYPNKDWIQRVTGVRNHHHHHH
Test: cell-based or functional assay
Numbered stars: 1 amine (or outer) side, 2 acyl side, 3 side chain; on linkers, the order of the positions; unused ones are H or OH. Bridge positions count the residues as written; N and C are the ends. Square brackets hold non-standard residues; d marks the D form. Ends that are not written are not given here. X11 = (S)‑Piperidine‑3‑carboxylic acid, O=C([C@H]1CCCN([*:1])C1)[*:2]; Oic = O=C(O)[C@@H]1C[C@@H]2CCCC[C@@H]2N1; NMeI = CC[C@H](C)[C@H](NC)C(=O)O; Pen = CC(C)(S)[C@H](N)C(=O)O; Orn = NCCC[C@H](N)C(=O)O; Sar = CNCC(=O)O
Overview of recorded rat MASP1 IC50 for various binders
MEASURED METRIC: rat MASP1 IC50 (nM)

[[record]]
binder = "[Sar]ICSRSLP[Oic]I[Pen]IPG[dD]-OH (disulfide 3-11; N-terminus assumed; SMILES CC[C@H](C)[C@H](NC(=O)CNC)C(=O)N[C@H]1CSSC(C)(C)[C@@H](C(=O)N[C@H](C(=O)N2CCC[C@H]2C(=O)NCC(=O)N[C@H](CC(=O)O)C(=O)O)[C@@H](C)CC)NC(=O)[C@H]([C@@H](C)CC)NC(=O)[C@@H]2C[C@@H]3CCCC[C@@H]3N2C(=O)[C@@H]2CCCN2C(=O)[C@H](CC(C)C)NC(=O)[C@H](CO)NC(=O)[C@H](CCCNC(=N)N)NC(=O)[C@H](CO)NC1=O) [Example 495: ((N-Me)G)-IC+SRSLP-(Oic)-I-(Pen)+IPGd-OH]"
measured_metric = "rat MASP1 IC50"
unit_of_measurement = "nM"
quantitative_result = 45

[[record]]
binder = "[X11]ICSRSLP[Oic]I[Pen]I-OH (disulfide 3-11; N-terminus assumed; SMILES CC[C@H](C)[C@H](NC(=O)[C@H]1NC(=O)[C@H]([C@@H](C)CC)NC(=O)[C@@H]2C[C@@H]3CCCC[C@@H]3N2C(=O)[C@@H]2CCCN2C(=O)[C@H](CC(C)C)NC(=O)[C@H](CO)NC(=O)[C@H](CCCNC(=N)N)NC(=O)[C@H](CO)NC(=O)[C@@H](NC(=O)[C@@H](NC(=O)[C@H]2CCCNC2)[C@@H](C)CC)CSSC1(C)C)C(=O)O) [Example 460: ((S)-Piperidine-3-carboxylic acid)-IC+SRSLP-(Oic)-I-(Pen)+I-OH]"
measured_metric = "rat MASP1 IC50"
unit_of_measurement = "nM"
quantitative_result = 210

[[record]]
binder = "G[NMeI]CSRSLPPICIPD-NH2 (disulfide 3-11; N-terminus assumed; SMILES CC[C@H](C)[C@@H]1NC(=O)[C@@H]2CCCN2C(=O)[C@@H]2CCCN2C(=O)[C@H](CC(C)C)NC(=O)[C@H](CO)NC(=O)[C@H](CCCNC(=N)N)NC(=O)[C@H](CO)NC(=O)[C@@H](NC(=O)[C@H]([C@@H](C)CC)N(C)C(=O)CN)CSSC[C@@H](C(=O)N[C@H](C(=O)N2CCC[C@H]2C(=O)N[C@@H](CC(=O)O)C(N)=O)[C@@H](C)CC)NC1=O) [Example 261: G-((N-Me)I)-C+SRSLPPIC+IPD-NH2]"
measured_metric = "rat MASP1 IC50"
unit_of_measurement = "nM"
quantitative_result = 300

[[record]]
binder = "[Sar][Orn][Orn][Orn]ICSRSLP[Oic]I[Pen]IP-NH2 (disulfide 6-14; N-terminus assumed; SMILES CC[C@H](C)[C@H](NC(=O)[C@H](CCCN)NC(=O)[C@H](CCCN)NC(=O)[C@H](CCCN)NC(=O)CNC)C(=O)N[C@H]1CSSC(C)(C)[C@@H](C(=O)N[C@H](C(=O)N2CCC[C@H]2C(N)=O)[C@@H](C)CC)NC(=O)[C@H]([C@@H](C)CC)NC(=O)[C@@H]2C[C@@H]3CCCC[C@@H]3N2C(=O)[C@@H]2CCCN2C(=O)[C@H](CC(C)C)NC(=O)[C@H](CO)NC(=O)[C@H](CCCNC(=N)N)NC(=O)[C@H](CO)NC1=O) [Example 405: ((N-Me)G)-(Orn)-(Orn)-(Orn)-IC+SRSLP-(Oic)-I-(Pen)+IP-NH2]"
measured_metric = "rat MASP1 IC50"
unit_of_measurement = "nM"
quantitative_result = 650

